Field: pIC50. Provide a value for each of the molecules that follow.
Biological target: Human recombinant MAO-A (Homo sapiens)
Sequence (P21397 1-527): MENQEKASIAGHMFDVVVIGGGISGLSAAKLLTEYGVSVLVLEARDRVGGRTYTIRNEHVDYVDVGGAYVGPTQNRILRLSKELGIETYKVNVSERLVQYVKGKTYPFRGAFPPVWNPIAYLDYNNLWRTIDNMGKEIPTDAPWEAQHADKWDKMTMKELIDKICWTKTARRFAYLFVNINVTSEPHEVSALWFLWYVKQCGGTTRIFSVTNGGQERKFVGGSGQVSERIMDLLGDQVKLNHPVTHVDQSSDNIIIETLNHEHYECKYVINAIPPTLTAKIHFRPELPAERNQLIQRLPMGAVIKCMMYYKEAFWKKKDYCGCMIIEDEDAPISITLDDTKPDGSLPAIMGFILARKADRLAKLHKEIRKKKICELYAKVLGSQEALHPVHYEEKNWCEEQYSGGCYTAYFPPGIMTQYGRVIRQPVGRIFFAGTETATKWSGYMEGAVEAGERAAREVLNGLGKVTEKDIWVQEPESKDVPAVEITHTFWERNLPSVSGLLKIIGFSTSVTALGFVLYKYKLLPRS
Test: MAO-A inhibitory assay
Assay type: biochemical
Give bare numbers, as −log10 of the molar value.

Reference set (5 entries):
>>> value("COc1cc(OC)c(Br)c(C(=O)c2cc(C)cc(OC)c2OC)c1 [compound 16]")
4.21
>>> value("COCOc1cc(OC)cc(C(=O)c2cc(C)cc(OC)c2OC)c1C#N [compound 34]")
4.61
>>> value("COc1cc(O)c2c(c1)C(O)(c1cc(C)cc(OC)c1OC)NC2=O (stereo not drawn) [compound 36]")
4.50
>>> value("CCOC(=O)c1c(OC)cc(OC)cc1C(=O)c1cc(C)cc(OC)c1OC [compound 21]")
4.33
>>> value("COCOc1cc(O)cc(C(=O)c2cc(C)cc(OC)c2O)c1Br [compound 32]")
4.47

Please give pIC50, item by item, for the list that follows.
1. COc1cc(C)cc(C(=O)c2cc(OCc3ccccc3)cc(O)c2Br)c1OCc1ccccc1 [compound 38]
2. COCOc1cc(OC)cc(C(=O)c2cc(C)cc(OC)c2OC)c1Br [compound 33]
3. COc1cc(C)cc(C(=O)c2cc(O)cc(O)c2Br)c1O [compound 31]
4. COCOc1cc(OCc2ccccc2)cc(C(=O)c2cc(C)cc(OC)c2OCc2ccccc2)c1Br [compound 37]

Reply:
[4.69, 4.56, 4.83, 4.28]

====

Field: pIC50. Provide a value for each of the compounds that follow.
Target: MAO-B (Homo sapiens)
Sequence (P27338 whole entry): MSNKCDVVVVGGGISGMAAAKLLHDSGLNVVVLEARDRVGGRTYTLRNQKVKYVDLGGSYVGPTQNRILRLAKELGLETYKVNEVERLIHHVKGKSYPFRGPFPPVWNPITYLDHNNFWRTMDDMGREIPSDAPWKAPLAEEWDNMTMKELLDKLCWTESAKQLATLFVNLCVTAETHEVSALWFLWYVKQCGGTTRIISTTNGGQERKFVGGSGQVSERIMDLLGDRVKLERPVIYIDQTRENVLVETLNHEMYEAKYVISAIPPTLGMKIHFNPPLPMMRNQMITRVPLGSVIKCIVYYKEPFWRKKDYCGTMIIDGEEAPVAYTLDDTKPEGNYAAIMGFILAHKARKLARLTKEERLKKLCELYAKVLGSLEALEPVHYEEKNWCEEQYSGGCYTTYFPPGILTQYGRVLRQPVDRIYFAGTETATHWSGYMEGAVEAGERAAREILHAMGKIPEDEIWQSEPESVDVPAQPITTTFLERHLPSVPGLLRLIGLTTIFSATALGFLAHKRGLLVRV
pIC50: −log10 of the molar value.

Reference set (3 entries):
>>> value("COCOc1cc(OC)cc(C(=O)c2cc(C)cc(OC)c2OC)c1C#N")
"< 4.00"
>>> value("COc1cc(C)cc(C(=O)c2cc(OCc3ccccc3)cc(OCc3ccccc3)c2)c1OC")
"< 4.00"
>>> value("COC(=O)c1c(OC)cc(OC)cc1C(=O)c1cc(C)cc(OC)c1OC")
"< 4.00"

Please give pIC50, item by item, for the list that follows.
1. CCOC(=O)c1c(OC)cc(OC)cc1C(=O)c1cc(C)cc(OC)c1OC
2. COCOc1cc(OCc2ccccc2)cc(C(=O)c2cc(C)cc(OC)c2OCc2ccccc2)c1Br
3. COc1cc(OC)c(C#N)c(C(=O)c2cc(C)cc(OC)c2OC)c1

Reply:
[4.21, 4.73, "< 4.00"]

Please give pIC50, item by item, for the list that follows.
1. COc1cc(C)cc(C(=O)c2cc(OCc3ccccc3)cc(O)c2Br)c1OCc1ccccc1
2. COc1cc(C)cc(C(=O)c2cc(OCc3ccccc3)cc(OCc3ccccc3)c2Br)c1OC
3. COc1cc(OCc2ccccc2)cc(C(=O)c2cc(C)cc(OC)c2OCc2ccccc2)c1C#N
4. COc1cc(OC)c(Br)c(C(=O)c2cc(C)cc(OC)c2OC)c1
5. COc1cc(OCc2ccccc2)cc(C(=O)c2cc(C)cc(OC)c2OCc2ccccc2)c1Br
6. COCOc1cc(O)cc(C(=O)c2cc(C)cc(OC)c2O)c1Br
7. COCOc1cc(OC)cc2c1C(=O)NC2(O)c1cc(C)cc(OC)c1OC (stereo not drawn)

Reply:
1. 4.03
2. < 4.00
3. < 4.00
4. < 4.00
5. < 4.00
6. 4.27
7. < 4.00

Please give pIC50, item by item, for the list that follows.
1. COc1cc(OC)c2c(c1)C(O)(c1cc(C)cc(OC)c1OC)OC2=O (stereo not drawn)
2. COc1cc(O)c2c(c1)C(O)(c1cc(C)cc(OC)c1OC)NC2=O (stereo not drawn)
3. COc1cc(C)cc(C(=O)c2cc(O)cc(O)c2Br)c1O

Reply:
[4.28, 4.42, 4.36]

Please give pIC50, item by item, for the list that follows.
1. COc1cc(C)cc(C(=O)c2cc(OCc3ccccc3)cc(OCc3ccccc3)c2C#N)c1OC
2. COCOc1cc(OC)cc(C(=O)c2cc(C)cc(OC)c2OC)c1Br

Reply:
["< 4.00", "< 4.00"]

Values were extracted from paper PMC9670909.
